# target-desc: T1, recombinant His-tagged full-length ERG (UniProt P11308 1-479, biotinylated with NHS-PEG4 biotin for the OctetRED assays)
# T1 construct: mature; Baculovirus expression in SF9 cells, Ni-NTA purified; also called wild-type ERG; wtERG; not shown: His tag
# T1 sequence (looked up): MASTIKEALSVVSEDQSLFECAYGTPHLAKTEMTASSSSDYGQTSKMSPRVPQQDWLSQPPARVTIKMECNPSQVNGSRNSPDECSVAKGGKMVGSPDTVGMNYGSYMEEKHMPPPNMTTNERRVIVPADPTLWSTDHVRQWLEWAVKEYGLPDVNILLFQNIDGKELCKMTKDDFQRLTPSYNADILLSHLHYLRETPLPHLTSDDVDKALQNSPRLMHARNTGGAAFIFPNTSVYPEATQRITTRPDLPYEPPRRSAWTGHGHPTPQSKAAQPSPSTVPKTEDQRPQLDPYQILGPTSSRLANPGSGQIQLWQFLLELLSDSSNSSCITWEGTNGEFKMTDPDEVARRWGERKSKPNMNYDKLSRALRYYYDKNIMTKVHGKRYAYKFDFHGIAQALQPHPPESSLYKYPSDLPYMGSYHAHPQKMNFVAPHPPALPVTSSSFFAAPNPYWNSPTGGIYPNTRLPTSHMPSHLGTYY
# protocol-details: OctetRED; Kd table of synthetic peptides on ERG
Hi there, I'd appreciate the recorded pKd for every entry that follows.
Give bare numbers, as −log10 of the molar value.

Report pKd for every entry below.
1. H-LPPYL-NH2 (also called H2N-LPPYL-NH2) [5LL-N]
2. H-PPYLF-NH2 (also called H2N-PPYLF-NH2) [5PF-N]
3. H-PYLFT-NH2 [5PT-N (NH2-PYLFT-NH2)]
4. Ac-LPPYL-NH2 (also called Ac-LPPYL-NH2) [5LL-A]

Reply text:
[5.02, 4.99, 5.88, 4.91]
